Conditions: 323.15 K, Ring tensiometer
Numbers after ± are expanded uncertainties.

[
  {
    "compound": "CCCC[n+]1cccc(C)c1.F[B-](F)(F)F [1-butyl-3-methylpyridinium tetrafluoroborate]",
    "surface tension liquid-gas": "44.4 ± 0.7 mN/m"
  },
  {
    "compound": "CCCC[n+]1cccc(C)c1.O=S(=O)([N-]S(=O)(=O)C(F)(F)F)C(F)(F)F",
    "surface tension liquid-gas": "34.4 ± 0.6 mN/m"
  },
  {
    "compound": "CCCC[n+]1ccccc1.O=S(=O)([N-]S(=O)(=O)C(F)(F)F)C(F)(F)F [1-butylpyridinium bis[(trifluoromethyl)sulfonyl]imide]",
    "surface tension liquid-gas": "34.1 ± 0.6 mN/m"
  },
  {
    "compound": "CCCC[n+]1ccccc1C.O=S(=O)([N-]S(=O)(=O)C(F)(F)F)C(F)(F)F",
    "surface tension liquid-gas": "35 ± 0.6 mN/m"
  }
]
